Origin of the recorded values: patent US10286084B2

Test system: HSV-1 ICP0 gene
ASSAY REMARKS: FLuc indicator assay in 293T cells, Sau Cas9 sgRNA expressed from various tRNAs
Assay type: cell-based
CONDITION NOTES: Sau Cas9, identical HSV-1 ICP0 sgRNA (SEQ ID NO: 16), tRNA promoter varied

| MOLECULE | knockdown of FLuc indicator |
| --- | --- |
| tRNAGLN: human glutamine tRNA promoter (SEQ ID NO: 41) fused to sgRNA (nucleic acid, expressed or natural sequence) DNA: GGTTCCATGGTGTAATGGTTAGCACTCTGGACTCTGAATCCAGCGATCCGAGTTCAAATCTCGGTGGAACCT | strong knockdown |
| tRNAGLN2: human tRNA promoter, SEQ ID NO: 45, fused to sgRNA (nucleic acid, expressed or natural sequence) DNA: GGTTCCATGGTGTAATGGTTAGCACTCTGGACTCTGAATCCAGCGATCCGAGTTCAAATCTCGGTGGAACCT | strong knockdown |
| tRNAGLU: human tRNA promoter, SEQ ID NO: 46, fused to sgRNA (nucleic acid, expressed or natural sequence) DNA: TCCCTGGTGGTCTAGTGGTTAGGATTCGGCGCTCTCACCGCCGCGGCCCGGGTTCGATTCCCGGTCAGGGAA | strong knockdown |
